Where do these numbers come from? They come from patent US10023590B2.

# Tested on: Zea mays
# experiment.summary: Greenhouse post-emergence herbicidal activity on crop ZEAMX (corn, maize)
# Assay type: in vivo
# Set-up: key: 0 = no damage/normal growth, 100 = no emergence or complete destruction
# run.parameters: ZEAMX (corn, crop), 0.125 kg/ha, scale 0 to 100
Hi, to clarify the labels: True covers Herbicidal activity from 20 upward, False covers anything below 20.

Solved cases below.
CCS(=O)(=O)N(C)c1c(Cl)ccc(C2=C(O)c3ncccc3CS2(=O)=O)c1Cl
True
CN(c1cccc(C2=C(O)c3ncccc3CS2(=O)=O)c1Cl)S(C)(=O)=O
True
Cc1c(C2=C(O)c3ncccc3CS2(=O)=O)ccc(Cl)c1N(C)S(C)(=O)=O
False
CN(c1c(Cl)ccc(C2=C(O)c3ncccc3CS2(=O)=O)c1Cl)S(=O)(=O)CC1CC1
False

Query: Confirm if Herbicidal activity reported for the molecule CC(C)N(c1c(Cl)ccc(C2=C(O)c3ncccc3CS2(=O)=O)c1Cl)S(C)(=O)=O is 20 or above.
Result: False

Query: And what about the molecule CCN(c1c(Cl)ccc(C2=C(O)c3ncccc3C(C)(C)S2(=O)=O)c1Cl)S(C)(=O)=O ?
Result: True

Query: And what about the molecule CN(C)S(=O)(=O)Oc1c(Cl)ccc(C2=C(O)c3ncccc3C(C)(C)S2(=O)=O)c1Cl ?
Result: False

Query: And what about the molecule Cc1c(C2=C(OC(=O)C(C)(C)C)c3ncccc3C(C)(C)S2(=O)=O)cccc1N(C)S(C)(=O)=O ?
Result: False

Query: And what about the molecule Cc1c(C2=C(O)c3ncccc3C(C)(C)S2(=O)=O)ccc(Cl)c1N(C)S(C)(=O)=O ?
Result: False

====

# System: Kochia scoparia
# experiment.summary: Greenhouse post-emergence herbicidal activity, KCHSC
# Assay type: in vivo
# run.parameters: 0.031 kg/ha, scale 0 to 100
As shown below, each of these compounds has a reported Herbicidal activity value.
Form: value (number only, do not type unit).

Cc1c(C2=C(O)c3ncccc3C(C)(C)S2(=O)=O)cccc1N(C)S(C)(=O)=O
95

Query: So what does the record say about Herbicidal activity for CC1(C)c2cccnc2C(O)=C(c2c(Cl)ccc(NS(C)(=O)=O)c2Cl)S1(=O)=O ?
Result: 90

Query: And what about the compound CS(=O)(=O)Nc1ccc(Cl)c(C2=C(O)c3ncccc3CS2(=O)=O)c1Cl ?
Result: 90

Query: And what about the compound CN(c1c(Cl)ccc(C2=C(O)c3ncccc3C(C)(C)S2(=O)=O)c1Cl)S(C)(=O)=O ?
Result: 95

====

# Test system: Oryza sativa
# experiment.summary: Greenhouse post-emergence herbicidal activity on crop ORYSA (rice)
# Type: in vivo
# run.parameters: crop ORYSA (rice), application rate 0.125 kg/ha
result.type: Herbicidal activity

Sample records with Herbicidal activity:
CN(c1cccc(C2=C(O)c3ncccc3CS2(=O)=O)c1C(F)(F)F)S(C)(=O)=O [I-35]
25
CN(c1c(Cl)ccc(C2=C(O)c3ncc(F)cc3CS2(=O)=O)c1Cl)S(C)(=O)=O [I-37]
0
CN(c1cccc(C2=C(O)c3ncccc3CS2(=O)=O)c1S(C)(=O)=O)S(C)(=O)=O [I-33]
10
CN(c1cccc(C2=C(O)c3ncccc3C(C)(C)S2(=O)=O)c1C(F)(F)F)S(C)(=O)=O [I-36]
45

Now for a further compound.
Query: Notebook entry, Oryza sativa assay: Herbicidal activity of CN(c1cccc(C2=C(O)c3ncccc3C(C)(C)S2(=O)=O)c1S(C)(=O)=O)S(C)(=O)=O [I-34] = ?
Result: 0

====

# System: Zea mays
# experiment.summary: Greenhouse post-emergence herbicidal activity on crop ZEAMX (corn, maize)
# Format: in vivo
# Design: key: 0 = no damage/normal growth, 100 = no emergence or complete destruction
# run.parameters: ZEAMX (corn, crop), 0.031 kg/ha, scale 0 to 100
result.type: Herbicidal activity
Form: value (number only, do not type unit).

Cc1c(C2=C(O)c3ncccc3C(C)(C)S2(=O)=O)cccc1N(C)S(C)(=O)=O [I-14]
15
CN(c1c(Cl)ccc(C2=C(O)c3ncccc3C(C)(C)S2(=O)=O)c1Cl)S(=O)(=O)C1CC1 [I-28]
20

Query: So what does the record say about Herbicidal activity for CN(c1c(Cl)ccc(C2=C(O)c3ncccc3CS2(=O)=O)c1Cl)S(=O)(=O)CC1CC1 [I-20] ?
Result: 0

Query: And what about the compound Cc1c(C2=C(O)c3ncccc3C(C)(C)S2(=O)=O)ccc(Cl)c1N(C)S(C)(=O)=O [I-29] ?
Result: 0

====

# System: Amaranthus retroflexus
# experiment.summary: Greenhouse post-emergence herbicidal activity, AMARE
# Assay type: in vivo
# run.parameters: AMARE, application rate 0.125 kg/ha
result.type: pest or weed control at 125 g/ha (%)
I only need the number, in %, no unit after it.

Sample records with pest or weed control at 125 g/ha:
CN(c1cccc(C2=C(O)c3ncccc3C(C)(C)S2(=O)=O)c1S(C)(=O)=O)S(C)(=O)=O [I-34]
98
CN(c1c(Cl)ccc(C2=C(O)c3ncc(F)cc3C(C)(C)S2(=O)=O)c1Cl)S(C)(=O)=O [I-38]
98
CN(c1cccc(C2=C(O)c3ncccc3CS2(=O)=O)c1C(F)(F)F)S(C)(=O)=O [I-35]
100
CN(c1c(Cl)ccc(C2=C(O)c3ncccc3CS2(=O)=O)c1C(F)(F)F)S(C)(=O)=O [I-31]
98
CN(c1c(Cl)ccc(C2=C(O)c3ncccc3C(C)(C)S2(=O)=O)c1C(F)(F)F)S(C)(=O)=O [I-32]
98
CN(c1cccc(C2=C(O)c3ncccc3CS2(=O)=O)c1S(C)(=O)=O)S(C)(=O)=O [I-33]
90

Now for a further compound.
Query: Notebook entry, Amaranthus retroflexus assay: pest or weed control at 125 g/ha of CN(c1cccc(C2=C(O)c3ncccc3C(C)(C)S2(=O)=O)c1C(F)(F)F)S(C)(=O)=O [I-36] = ?
Result: 98

====

# System: Chenopodium album
# experiment.summary: Greenhouse post-emergence herbicidal activity, CHEAL
# Type: in vivo
# run.parameters: 0.063 kg/ha, scale 0 to 100
result.type: pest or weed control at 63 g/ha (%)
I only need the number, in %, no unit after it.

Sample records with pest or weed control at 63 g/ha:
CS(=O)(=O)N(c1c(Cl)ccc(C2=C(O)c3ncccc3CS2(=O)=O)c1Cl)C1CC1
85
CCS(=O)(=O)N(C)c1c(Cl)ccc(C2=C(O)c3ncccc3CS2(=O)=O)c1Cl
100
CN(c1ccc(Cl)c(C2=C(O)c3ncccc3CS2(=O)=O)c1Cl)S(C)(=O)=O
95
CC1(C)c2cccnc2C(O)=C(c2ccc(Cl)c(N(C3CC3)S(C)(=O)=O)c2Cl)S1(=O)=O
95
CCN(c1c(Cl)ccc(C2=C(O)c3ncccc3CS2(=O)=O)c1Cl)S(C)(=O)=O
100

Query: So what does the record say about pest or weed control at 63 g/ha for CN(c1c(Cl)ccc(C2=C(O)c3ncccc3CS2(=O)=O)c1Cl)S(=O)(=O)CC1CC1 ?
Result: 100

Query: And what about the compound CN(c1c(Cl)ccc(C2=C(O)c3ncccc3CS2(=O)=O)c1Cl)S(=O)(=O)C1CC1 ?
Result: 100

Query: And what about the compound CC1(C)c2cccnc2C(O)=C(c2c(Cl)ccc(NS(C)(=O)=O)c2Cl)S1(=O)=O ?
Result: 98

Query: And what about the compound CN(c1cccc(C2=C(O)c3ncccc3CS2(=O)=O)c1Cl)S(C)(=O)=O ?
Result: 98

Query: And what about the compound CN(c1ccc(Cl)c(C2=C(O)c3ncccc3C(C)(C)S2(=O)=O)c1Cl)S(C)(=O)=O ?
Result: 85

Query: And what about the compound CN(c1c(Cl)ccc(C2=C(O)c3ncccc3C(C)(C)S2(=O)=O)c1Cl)S(=O)(=O)CC1CC1 ?
Result: 98

Query: And what about the compound CN(C)S(=O)(=O)Oc1c(Cl)ccc(C2=C(O)c3ncccc3CS2(=O)=O)c1Cl ?
Result: 95

Query: And what about the compound CN(c1c(Cl)ccc(C2=C(O)c3ncccc3C(C)(C)S2(=O)=O)c1Cl)S(=O)(=O)C1CC1 ?
Result: 98

Query: And what about the compound CN(c1cccc(C2=C(OC(=O)C(C)(C)C)c3ncccc3C(C)(C)S2(=O)=O)c1Cl)S(C)(=O)=O ?
Result: 98

Query: And what about the compound CC(C)N(c1c(Cl)ccc(C2=C(O)c3ncccc3C(C)(C)S2(=O)=O)c1Cl)S(C)(=O)=O ?
Result: 98

Query: And what about the compound CC(C)N(c1c(Cl)ccc(C2=C(O)c3ncccc3CS2(=O)=O)c1Cl)S(C)(=O)=O ?
Result: 85

Query: And what about the compound Cc1c(C2=C(O)c3ncccc3C(C)(C)S2(=O)=O)ccc(Cl)c1N(C)S(C)(=O)=O ?
Result: 98

Query: And what about the compound CN(c1cccc(C2=C(O)c3ncccc3C(C)(C)S2(=O)=O)c1Cl)S(C)(=O)=O ?
Result: 100

Query: And what about the compound CN(C)S(=O)(=O)Oc1c(Cl)ccc(C2=C(O)c3ncccc3C(C)(C)S2(=O)=O)c1Cl ?
Result: 95
